System: iPS(Foreskin)-4-derived d8 HPTC-like cells
Conditions: 10 μg/ml, overnight (16 h), qPCR, normalized to vehicle control (=1), mean +/- s.d., n=3
Each record's IL8 Expression Levels is compared with bottom end: < 0.9; midrange: ≥ 0.9 and < 5; top end: ≥ 5 to give its class.

Example entries begin here.
>  <Compound>
[Cl][Cu][Cl] [Copper (II) chloride]

>  <Assigned label>
top end

$$$$
>  <Compound>
[K+].[K+].[O]=[Cr](=[O])([O-])[O][Cr](=[O])(=[O])[O-] [Potassium dichromate]

>  <Assigned label>
bottom end

$$$$
>  <Compound>
O=[As]O[As]=O (stereo not drawn) [Arsenic (III) oxide]

>  <Assigned label>
midrange

$$$$
>  <Compound>
CN[C@H](CC(C)C)C(=O)N[C@H]1C(=O)N[C@@H](CC(N)=O)C(=O)N[C@H]2C(=O)N[C@H]3C(=O)N[C@H](C(=O)N[C@H](C(=O)O)c4cc(O)cc(O)c4-c4cc3ccc4O)[C@H](O)c3ccc(c(Cl)c3)Oc3cc2cc(c3O[C@@H]2O[C@H](CO)[C@@H](O)[C@H](O)[C@H]2O[C@H]2C[C@](C)(N)[C@H](O)[C@H](C)O2)Oc2ccc(cc2Cl)[C@H]1O [Vancomycin]

>  <Assigned label>
bottom end

$$$$
>  <Compound>
[Bi+3].[Bi+3].[O-2].[O-2].[O-2] [Bismuth (III) oxide]

>  <Assigned label>
midrange

$$$$
>  <Compound>
COc1cccc2c1cc([N+](=O)[O-])c1c(C(=O)O)cc3c(c12)OCO3 [Aristolochic acid]

>  <Assigned label>
midrange

$$$$
>  <Compound>
[Cl][Cd][Cl] [Cadmium chloride]

>  <Assigned label>
top end

$$$$

Asked: State the class of the compound shown: CC(=O)[O-].CC(=O)[O-].[Pb+2] [Lead acetate]
Given back: midrange
